Quick reference: EC50 of the listed items.
biological target: T1, recombinant LILRB1 (human, UniProt Q8NHL6 24-461); test: ELISA, coated recombinant LILRB1, antibody titration;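 also: serially diluted anti-LILRB1 antibodies incubated 60 min at 37 °C on plates coated with 50 ng/well recombinant protein, TMB colorimetric development read as absorbance at 450 nm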
T1 construct: LILRB1-Fc proteins were also made; also called LILRB1 recombinant proteins
T1 sequence (Q8NHL6 24-461 limits assumed): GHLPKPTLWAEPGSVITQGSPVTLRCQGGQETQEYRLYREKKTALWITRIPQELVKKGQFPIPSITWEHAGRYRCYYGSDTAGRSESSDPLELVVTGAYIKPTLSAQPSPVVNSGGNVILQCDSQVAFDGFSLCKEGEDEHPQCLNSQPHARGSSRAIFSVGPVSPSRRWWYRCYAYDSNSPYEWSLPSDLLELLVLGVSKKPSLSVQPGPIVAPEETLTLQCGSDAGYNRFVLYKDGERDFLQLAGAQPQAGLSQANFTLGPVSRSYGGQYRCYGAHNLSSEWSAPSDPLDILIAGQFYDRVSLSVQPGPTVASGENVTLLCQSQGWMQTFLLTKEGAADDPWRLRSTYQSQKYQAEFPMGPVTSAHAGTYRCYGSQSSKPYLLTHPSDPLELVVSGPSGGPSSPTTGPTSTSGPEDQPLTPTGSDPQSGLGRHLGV
I only need the number, in µg/mL, no unit after it.

binder="B1-#98 (antibody, V domains shown, recombinant rabbit IgG) VH: EQSLEESGGDLVKPEGSLTLTCTASGFSFSSSYWICWVRQAPGKGLEWIACVATGSGTTDYASWAKGRFTMSKTSSTTVTLQMTSLTVADTATYFCARIGAFYSFRLWGPGTLVTISS VL: ELDLTQTPGSVEAAVGGTVTIKCQAGQSIYNYLSWYQQKPGQPPKLLIYSASTLESGVPPRFSGSGSGTEFTLTISDLECADAATYSCQNNYGIGSNYGPGFGGGTEVEIK" attribute_measured=EC50 unit_name=µg/mL experimental_result=0.038
binder="B1-#173-2 (antibody, V domains shown, recombinant rabbit IgG) VH: QSVEESGGDLVKPGASLTLTCTASGFDFSSNAYLCWVRQAPGKGLEWIGCIYDGTSGDTYYANWAKGRFTISRSSSTTVTLQMTSLTAADTATYFCARDTRSSNYYFNLWGPGTLVTISS VL: ELVLTQTPSSTSAAVGGTVTINCQASQSVDNNKQLSWYQQKPGQPPKQLIYSASKLASGVPSRFKGSGSGTQFTLTISDLECDDAATYYCAGYYYSGSATDAWAFGGATEVEIN" attribute_measured=EC50 unit_name=µg/mL experimental_result=0.00656

Next binder, please.
Enquiry: // query EC50 value for entry B1-#83 (antibody, V domains shown, recombinant rabbit IgG) VH: EQSLKESGGDLVKPGASLTLTCTASAFSFSSSSWICWVRQAPGKGLEWIACIYGGSVATTYYATWAKGRFTISKPSSTTVTLQMTSLPAADTATYFCATNTDSSRSYYNLWGPGTLVTVSS VL: ELDLTQTPSSVEVAVGGAVTIKCQASHIITNYLAWYQQRPGQPPKLLIYDASKLASGVPSRFKGSGSGTEFTLTISDLECADAATYYCQNYLYFSSGDWNVFGGGTEVVVK
Return: 0.0155
